read-out: Glyceraldehyde-3-phosphate dehydrogenase (Homo sapiens) (UniProt P04406); experiment: CLD_GAPDH_48hr: CellzDirect (CLD) Gene Expression Assay for Baseline Control (Glyceraldehyde 3-phosphate dehydrogenase) at 48 hours (AID 2283706);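 also: active means higher GAPDH mRNA than DMSO vehicle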
Sequence (P04406 whole entry, looked up): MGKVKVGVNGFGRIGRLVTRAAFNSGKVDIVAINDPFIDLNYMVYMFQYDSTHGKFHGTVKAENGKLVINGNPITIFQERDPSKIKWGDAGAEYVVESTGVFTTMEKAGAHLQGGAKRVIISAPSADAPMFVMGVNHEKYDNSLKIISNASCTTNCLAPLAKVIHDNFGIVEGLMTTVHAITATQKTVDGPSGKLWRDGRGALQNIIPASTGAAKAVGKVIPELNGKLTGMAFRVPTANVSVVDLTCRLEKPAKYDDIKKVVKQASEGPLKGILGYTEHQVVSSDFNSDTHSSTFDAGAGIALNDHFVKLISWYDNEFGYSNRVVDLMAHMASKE
Inconclusive results are not listed. Activity calls are given as the source filed them. The calls were made as follows: active = hit-call score of the fitted dose curve at least 0.9, where 1 is the maximum; inconclusive = response in the unintended direction; inactive = score below 0.9.
MEASURED PROPERTY: outcome

Use these answered entries as a reference point.
{"COMPOUND": "CNC(=O)ON=CC(C)(C)SC", "outcome": "inactive"}
{"COMPOUND": "COc1nc(C)nc(NC(=O)NS(=O)(=O)c2ccccc2Cl)n1", "outcome": "inactive"}
{"COMPOUND": "CC(C)(C)c1ccc(CSc2cnn(C(C)(C)C)c(=O)c2Cl)cc1", "outcome": "inactive"}
{"COMPOUND": "O=C(O)COc1nc(Cl)c(Cl)cc1Cl", "outcome": "inactive"}
{"COMPOUND": "CCCCNC(=O)OCC#CI", "outcome": "inactive"}

Here is another compound to look at.
# return recorded outcome for input CCOC(=O)CC(SP(=S)(OC)OC)C(=O)OCC (stereo not given)
inactive
